Measured IC50, listed per entry.
result type: IC50 (µM)

[[record]]
structure_smiles = "Cc1cc(=O)oc2c1ccc1oc(=N)c(C(=O)NCc3ccccc3Cl)cc12"
relation_symbol = "="
quantitative_readout = 16

[[record]]
structure_smiles = "CNC(=O)c1cc2c(ccc3c(C)cc(=O)oc32)oc1=N"
relation_symbol = "="
quantitative_readout = 34.2

[[record]]
structure_smiles = "Cc1cc(=O)oc2c1ccc1oc(=N)c(C(=O)NC3CCCCC3)cc12"
relation_symbol = ">"
quantitative_readout = 50

[[record]]
structure_smiles = "Cc1cc(=O)oc2c1ccc1oc(=N)c(C(=O)NCc3ccccc3Br)cc12"
relation_symbol = "="
quantitative_readout = 11.9

[[record]]
structure_smiles = "CCNC(=O)c1cc2c(ccc3c(C)cc(=O)oc32)oc1=N"
relation_symbol = ">"
quantitative_readout = 50

[[record]]
structure_smiles = "Cc1cc(=O)oc2c1ccc1oc(=N)c(C(=O)Nc3ccccc3[N+](=O)[O-])cc12"
relation_symbol = ">"
quantitative_readout = 50

